- protocolDetails: Psilocybin and psilocin plasma pharmacokinetics after s.c. psilocybin
- Format: in vivo, rats
- reportedConditions: rat, plasma, subcutaneous, 0.1 mg/kg, psilocybin 0.1 mg/kg, rats, after 30 mins; read-out: Cmax psilocin
testReadout: Cmax

In: Fill in the blank: the reported Cmax of CN(C)CCc1c[nH]c2cccc(O)c12 [psilocin, 4-hydroxy-N,N-dimethyltryptamine] is ____.
Out: ~12 ng/mL

---

- protocolDetails: Psilocybin and psilocin plasma pharmacokinetics after s.c. psilocybin
- Format: in vivo, rats
- reportedConditions: rat, sc; psilocin in plasma after psilocybin 0.05 mg/kg s.c., rats; read-out: Apparent t1/2, Mean (converted)
- Description: Psilocybin doses of 0.05, 0.1, 1, 10 mg/kg were used to evaluate psilocybin and psilocin PK in rats. For the doses of psilocybin that positively effect behaviors in the low performers in the PR and 5CSRTT, e.g., 0.05-0.1 mg/kg, the corresponding Cm. of psilocin was ˜7±2 ng/ml at 30 minutes for 0.05 mg/kg, and at a dose of 0.1 mg/kg, the Cm. of psilocin was determined to be ˜12±3 ng/ml at 30 minutes (FIG. 5). […]
testReadout: half-life (h)
Report only the number, with the unit h understood.

In: Fill in: half-life of CN(C)CCc1c[nH]c2cccc(O)c12 [psilocin, 4-hydroxy-N,N-dimethyltryptamine] is ___
Out: 1
